molecular target: recombinant PfUCK (P. falciparum UMP-CMP kinase, PfUCK-Δ23) (Plasmodium falciparum); experiment: Inhibition constant (Ki) determination, coupled PK/LDH NADH assay, recombinant PfUCK
Sequence (Q8I231 entry or part of it, stated change not applied): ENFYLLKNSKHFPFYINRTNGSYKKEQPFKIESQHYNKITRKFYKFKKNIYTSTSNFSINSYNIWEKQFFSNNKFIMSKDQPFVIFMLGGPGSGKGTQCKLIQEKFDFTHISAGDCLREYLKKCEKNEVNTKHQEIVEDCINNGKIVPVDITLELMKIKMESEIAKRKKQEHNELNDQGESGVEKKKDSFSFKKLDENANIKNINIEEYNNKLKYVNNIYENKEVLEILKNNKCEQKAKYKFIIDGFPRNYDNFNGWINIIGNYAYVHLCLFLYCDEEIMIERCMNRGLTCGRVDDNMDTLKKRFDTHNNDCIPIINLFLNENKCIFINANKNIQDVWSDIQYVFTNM
measured_property: Ki (µM)

INSERT INTO results (molecule, test_value) VALUES
  ('N#CCC(=O)c1ccc(Cl)c(Cl)c1 [Compound C12]', 11.3),
  ('N#CCC(=O)c1cncc(Br)c1 [Compound C67]', 4.38),
  ('N#CCC(=O)c1cc(C(F)(F)F)cc(C(F)(F)F)c1 [Compound C83]', 4.66),
  ('C=CC(=O)NCc1cc(=O)n2ccccc2n1 [Compound C43]', 4.15),
  ('N#CCC(=O)c1cccc(F)c1 [Compound C38]', 1.66),
  ('C=CC(=O)N1CCC(C(=O)NCc2cc(=O)n3ccccc3n2)CC1 [Compound C58]', 2.11),
  ('N#CCC(=O)c1ccccc1Cl [Compound C39]', 3.64),
  ('O=C(CCl)NCc1cc(=O)n2ccccc2n1 [Compound C21]', 13.7),
  ('N#CCC(=O)c1cccc(Cl)c1 [Compound C7]', 4.26);
